Reference source: patent US8183262B2

Please respond with reported melting point for every item in the list.
Write the answer as a number in °C, unit excluded.

input: For the molecule shown here, Cc1cc(-c2ccc(C#N)cc2)nc(-c2cccc(-c3cccc(S(N)(=O)=O)c3)n2)n1 , give the reported melting point.
output: 255

input: For the molecule shown here, FC(F)(F)c1cc(-c2ccc(Cl)cc2)nc(-c2nc(-c3ccncc3)no2)n1 , give the reported melting point.
output: 187.5

input: For the molecule shown here, Cc1cc(-c2ccc(Cl)c(Cl)c2)nc(-n2cnc(-c3ccc(S(N)(=O)=O)s3)c2)n1 , give the reported melting point.
output: 253.5

input: For the molecule shown here, Nc1ncc(-c2cn(-c3nc(-c4cccc(Cl)c4)cc(C(F)(F)F)n3)cn2)cn1 , give the reported melting point.
output: 281

input: For the molecule shown here, Nc1ccc(-c2noc(-c3cc(C(F)(F)F)cc(-c4ccc(C(F)(F)F)cc4)n3)n2)cn1 , give the reported melting point.
output: 229
